Assay: Stability Test-1: residual rate of 1% aqueous solutions stored at 50° C. (HPLC)
Type: physicochemical
Conditions: water; pH 7, 50° C., after 4 weeks, 1% aqueous solution
Reported endpoint: remaining at 672 h

Use the examples below as a reference point.
Molecule | Result
O=C1O[C@H]([C@@H](O)CO)C(O)=C1O | < 30%
O=C1OC(C(O)CO)C2=C1OCCO2 (centres unmarked) [Synthesis Example 1, 2,3-O-(1,2-ethanediyl) ascorbic acid] | 30 to 50%
O=C1OC(C(O)CO)C2=C1OC(CO)CO2 (centres unmarked) [Synthesis Example 5] | 30 to 50%
O=C1O[C@H]([C@@H](O)CO)C(OCC(O)CO)=C1OCC(O)CO (some centres unmarked) [Bisglyceryl ascorbic acid, reference compound] | < 30%
O=C1OC(C(O)CO)C2=C1OCCCCO2 (centres unmarked) [Synthesis Example 3, 2,3-O-(1,4-butanediyl) ascorbic acid] | ≥ 80%

Given the molecule O=C1OC(C(O)CO)C2=C1OCC(O)CO2 (centres unmarked) [Synthesis Example 4] , what is its reported remaining at 672 h?
50 to 80%

Need remaining at 672 h of O=C1OC(C(O)CO)C2=C1OCC1(COC1)CO2 (centres unmarked) [Synthesis Example 6] , thanks.
50 to 80%

State the recorded remaining at 672 h for this entry: O=C1OC(C(O)CO)C2=C1OCCCO2 (centres unmarked) [Synthesis Example 2, 2,3-O-(1,3-propanediyl) ascorbic acid]
≥ 80%

----------
Assay: Stability Test-1: residual rate of 1% aqueous solutions stored at 50° C. (HPLC)
Type: physicochemical
Conditions: water; pH 9, 50° C., after 4 weeks, 1% aqueous solution
Form field: remaining at 672 h (one value per entry).

Look up remaining at 672 h: O=C1O[C@H]([C@@H](O)CO)C(OCC(O)CO)=C1OCC(O)CO (some centres unmarked) [Bisglyceryl ascorbic acid, reference compound]
< 30%

Fill in: remaining at 672 h of O=C1OC(C(O)CO)C2=C1OC(CO)CO2 (centres unmarked) [Synthesis Example 5] is ___
30 to 50%

Fill blank: measured remaining at 672 h of the molecule O=C1OC(C(O)CO)C2=C1OCC(O)CO2 (centres unmarked) [Synthesis Example 4] is ____.
30 to 50%

Consider the molecule O=C1O[C@H]([C@@H](O)CO)C(O)=C1O and give its measured remaining at 672 h.
< 30%

// returns reported remaining at 672 h for input O=C1OC(C(O)CO)C2=C1OCC1(COC1)CO2 (centres unmarked) [Synthesis Example 6]
30 to 50%

----------
Assay: Stability Test-1: residual rate of 1% aqueous solutions stored at 50° C. (HPLC)
Assay type: physicochemical
Settings: water; pH 3, 50° C., after 4 weeks, 1% aqueous solution
Reported endpoint: remaining at 672 h

Compound | remaining at 672 h
O=C1OC(C(O)CO)C2=C1OCC1(COC1)CO2 (centres unmarked) [Synthesis Example 6] | ≥ 80%
O=C1O[C@H]([C@@H](O)CO)C(O)=C1O | 30 to 50%
O=C1O[C@H]([C@@H](O)CO)C(OCC(O)CO)=C1OCC(O)CO (some centres unmarked) [Bisglyceryl ascorbic acid, reference compound] | ≥ 80%
O=C1OC(C(O)CO)C2=C1OCC(O)CO2 (centres unmarked) [Synthesis Example 4] | ≥ 80%

Turning now to a further record.
Name the reported remaining at 672 h value associated with the compound O=C1OC(C(O)CO)C2=C1OC(CO)CO2 (centres unmarked) [Synthesis Example 5]
≥ 80%

----------
Recorded remaining at 336 h values for a group of molecules are listed next.
Test: Stability Test-1: residual rate of 1% aqueous solutions stored at 50° C. (HPLC)
Type: physicochemical
Details: water; pH 9, 50° C., after 2 weeks, 1% aqueous solution; read-out: Residual Rate
Protocol: For each of the samples of Synthesis Examples 1 to 6, 1% aqueous solutions were adjusted to pH 3, 5, 7, 8, and 9 with a dilute potassium hydroxide aqueous solution, and then placed in 50 mL screw tubes and sealed. […] Furthermore, the odor and coloration of the samples adjusted to pH 7 were evaluated based on the following methods and criteria, and the results are shown in Table 11. • ⊚: 80% or more • ◯: 50% or more, less than 80% • Δ: 30% or more, less than 50% • x: Less than 30%

Molecule | remaining at 336 h
O=C1OC(C(O)CO)C2=C1OCC(O)CO2 (centres unmarked) [Synthesis Example 4] | 50 to 80%
O=C1O[C@H]([C@@H](O)CO)C(OCC(O)CO)=C1OCC(O)CO (some centres unmarked) [Bisglyceryl ascorbic acid, reference compound] | < 30%
O=C1O[C@H]([C@@H](O)CO)C(O)=C1O | < 30%
O=C1OC(C(O)CO)C2=C1OCC1(COC1)CO2 (centres unmarked) [Synthesis Example 6] | 50 to 80%

Given O=C1OC(C(O)CO)C2=C1OCCCCO2 (centres unmarked) [Synthesis Example 3, 2,3-O-(1,4-butanediyl) ascorbic acid] , state its recorded remaining at 336 h.
50 to 80%

What value of measured remaining at 336 h is listed for O=C1OC(C(O)CO)C2=C1OCCO2 (centres unmarked) [Synthesis Example 1, 2,3-O-(1,2-ethanediyl) ascorbic acid] ?
< 30%

For O=C1OC(C(O)CO)C2=C1OCCCO2 (centres unmarked) [Synthesis Example 2, 2,3-O-(1,3-propanediyl) ascorbic acid] , what is its reported remaining at 336 h?
50 to 80%

What value of remaining at 336 h has been recorded for this entry: O=C1OC(C(O)CO)C2=C1OC(CO)CO2 (centres unmarked) [Synthesis Example 5]
50 to 80%

----------
Assay: Stability Test-1: residual rate of 1% aqueous solutions stored at 50° C. (HPLC)
Assay type: physicochemical
Details: water; pH 9, 50° C., after 4 weeks, 1% aqueous solution
Quick reference: remaining at 672 h of the listed items.

Molecule | remaining at 672 h
O=C1OC(C(O)CO)C2=C1OCCO2 (stereo not drawn) [Synthesis Example 1, 2,3-O-(1,2-ethanediyl) ascorbic acid] | < 30%
O=C1OC(C(O)CO)C2=C1OCCCCO2 (stereo not drawn) [Synthesis Example 3, 2,3-O-(1,4-butanediyl) ascorbic acid] | 30 to 50%

Now for another entry.
If you can, please state the reported remaining at 672 h value of O=C1OC(C(O)CO)C2=C1OCCCO2 (stereo not drawn) [Synthesis Example 2, 2,3-O-(1,3-propanediyl) ascorbic acid] .
30 to 50%

----------
Assay: Stability Test-1: residual rate of 1% aqueous solutions stored at 50° C. (HPLC)
Assay type: physicochemical
Conditions: water; pH 5, 50° C., after 4 weeks, 1% aqueous solution
Reported endpoint: remaining at 672 h

Which remaining at 672 h reading was recorded for the compound O=C1OC(C(O)CO)C2=C1OCC(O)CO2 (stereo not shown) [Synthesis Example 4] ?
≥ 80%

Give its remaining at 672 h value. Item: O=C1O[C@H]([C@@H](O)CO)C(O)=C1O
< 30%

Please give the measured remaining at 672 h for this compound: O=C1O[C@H]([C@@H](O)CO)C(OCC(O)CO)=C1OCC(O)CO (stereo partly shown) [Bisglyceryl ascorbic acid, reference compound]
≥ 80%

# query: remaining at 672 h of entry O=C1OC(C(O)CO)C2=C1OCCO2 (stereo not shown) [Synthesis Example 1, 2,3-O-(1,2-ethanediyl) ascorbic acid]
≥ 80%

----------
Assay: Stability Test-1: residual rate of 1% aqueous solutions stored at 50° C. (HPLC)
Format: physicochemical
Conditions: water; pH 7, 50° C., after 2 weeks, 1% aqueous solution; read-out: Residual Rate
Reported endpoint: remaining at 336 h

Example molecules with recorded remaining at 336 h:
Molecule | Result
O=C1OC(C(O)CO)C2=C1OCC1(COC1)CO2 (centres unmarked) [Synthesis Example 6] | 50 to 80%
O=C1O[C@H]([C@@H](O)CO)C(OCC(O)CO)=C1OCC(O)CO (some centres unmarked) [Bisglyceryl ascorbic acid, reference compound] | < 30%
O=C1OC(C(O)CO)C2=C1OCCCCO2 (centres unmarked) [Synthesis Example 3, 2,3-O-(1,4-butanediyl) ascorbic acid] | ≥ 80%

Find the recorded remaining at 336 h belonging to O=C1O[C@H]([C@@H](O)CO)C(O)=C1O [Ascorbic acid] and report it.
< 30%

----------
Experiment: Stability Test-1: residual rate of 1% aqueous solutions stored at 50° C. (HPLC)
Format: physicochemical
Settings: water; pH 8, 50° C., after 2 weeks, 1% aqueous solution; read-out: Residual Rate
Reported endpoint: remaining at 336 h

Consider the worked cases shown below.
Compound | remaining at 336 h
O=C1OC(C(O)CO)C2=C1OCCO2 (centres unmarked) [Synthesis Example 1, 2,3-O-(1,2-ethanediyl) ascorbic acid] | 30 to 50%
O=C1OC(C(O)CO)C2=C1OCCCO2 (centres unmarked) [Synthesis Example 2, 2,3-O-(1,3-propanediyl) ascorbic acid] | ≥ 80%
O=C1OC(C(O)CO)C2=C1OCC1(COC1)CO2 (centres unmarked) [Synthesis Example 6] | 50 to 80%
O=C1OC(C(O)CO)C2=C1OCCCCO2 (centres unmarked) [Synthesis Example 3, 2,3-O-(1,4-butanediyl) ascorbic acid] | ≥ 80%
O=C1OC(C(O)CO)C2=C1OC(CO)CO2 (centres unmarked) [Synthesis Example 5] | 50 to 80%
O=C1OC(C(O)CO)C2=C1OCC(O)CO2 (centres unmarked) [Synthesis Example 4] | 50 to 80%

Recorded remaining at 336 h of O=C1O[C@H]([C@@H](O)CO)C(OCC(O)CO)=C1OCC(O)CO (some centres unmarked) [Bisglyceryl ascorbic acid, reference compound] , please.
< 30%

// query remaining at 336 h value for entry O=C1O[C@H]([C@@H](O)CO)C(O)=C1O
< 30%
